Attribution: PubChem BioAssay (NCI)

System: MOLT-4 leukemia
Assay: NCI-60 one-dose screen, 48 h
Settings: 10 µM
Procedure: Growth inhibition of the MOLT-4 human tumor cell line is measured as a screen for anti-cancer activity. Cells are grown in 96 well plates and exposed to the test compound for 48 hours. Compounds are tested at a single concentration, which is 10^-5 M for most compounds. The reported endpoint is percent growth (GI% or GIPRCNT), where numbers from 0 - 100% represent growth inhibition, and numbers from -100% - 0 represent cell death. For example, a value of 40 represents 60% growth inhibition. […]
About 83,000 compounds went through this panel and 20% of them were active in at least one assay; those are over-represented in the sample as a whole. The source made the active and inactive calls. The calls were made as follows: active = growth percent below 10; inactive = the rest.
// one of Yes for active, No for inactive, no free text

Data request: Assay outcome for CCOC(=O)C1=C(C)NC(=O)NC1c1cccs1 (centres undefined) : what was it?
Data returned: No

Data request: // param item: NC(=S)N/N=C/c1ccc(N)cc1 ; yields the recorded call
Data returned: No

Data request: Short answer needed: outcome of this test for Sc1ccc(Nc2c3ccccc3nc3ccccc23)cc1 ?
Data returned: No

Data request: Answer briefly: the call reported for COc1cc(C(=O)N/N=C/c2cccc([N+](=O)[O-])c2)cc(OC)c1OC in this assay.
Data returned: No

Data request: # outcome recorded in this test, key = CCOc1ccc(I)cc1
Data returned: No

---
Data request: Check the results log: what was the call for C/C(=N/NC(N)=O)c1ccco1 ?
Data returned: No

Data request: Could you check what this test reported for CCC/C=C(\C)C(C)(C#N)C(=O)OCC (centres undefined) ?
Data returned: No

Data request: Hi, do you know how Cc1cc(N)ccc1-c1ccc(N)cc1C came out in this test?
Data returned: No

Data request: Which outcome was assigned to COCCOCCCl in this test?
Data returned: No

Data request: What did this assay record as the result for Cc1cc(N2CCC(N3CCCC3)CC2)nc(/N=C(\N)Nc2ccc(Cl)c(Cl)c2)n1 ?
Data returned: Yes

Data request: Look up the recorded call for NC(CSC(c1ccccc1)(c1ccccc1)c1ccccc1)C(=O)O (centres undefined) in this test.
Data returned: No

Data request: What call does the record list for c1ccc(CN2COc3c(ccc4c3OCN(Cc3ccccc3)C4)C2)cc1 ?
Data returned: Yes

Data request: // outcome(item) with item = C=CCNc1nnc(C)s1
Data returned: No

Data request: What classification did NC(=S)CN1CCOCC1 end up with in this test?
Data returned: No

Data request: What call does the record list for O=C(Cc1ccccc1)Cc1ccccc1 ?
Data returned: No

Data request: Assay result, entry O=C(Nc1cc(-c2ccccc2)[nH]n1)c1ccc(Cl)cc1 — outcome?
Data returned: No

Data request: # lookup: test call for NC(C(=O)O)C(O)c1ccco1 (centres undefined)
Data returned: No

Data request: Hello, I am checking results. What call was entered for Oc1ccc(N=Nc2ccc(Br)cc2)c(O)c1 ?
Data returned: No

Data request: Record request — test call for CC(O)COc1ccc(-c2ccccc2)cc1 (centres undefined)
Data returned: No

----------
System: HS 578T breast
Test: NCI-60 one-dose screen, 48 h (100 = growth as untreated, 0 = no growth, -100 = all killed)
Settings: 10 µM
Description: Growth inhibition of the HS 578T human tumor cell line is measured as a screen for anti-cancer activity. Cells are grown in 96 well plates and exposed to the test compound for 48 hours. Compounds are tested at a single concentration, which is 10^-5 M for most compounds. The reported endpoint is percent growth (GI% or GIPRCNT), where numbers from 0 - 100% represent growth inhibition, and numbers from -100% - 0 represent cell death. For example, a value of 40 represents 60% growth inhibition. […]
The panel holds about 83,000 compounds, 20% with a hit somewhere; the sample as a whole holds those more often.
Each record here notes measured growth.
Dear colleague, please return just the value in %, with no unit written.

Entry CCOC(=O)C(=O)C=P(c1ccccc1)(c1ccccc1)c1ccccc1 under HS 578T breast had growth of 105

Let me check: COc1ccc(OC)c(/C=C2\CCc3ccccc3C2=O)c1 , system HS 578T breast, measured growth is 45.4

Item Cc1cc(C)cc(NCCC#N)c1 was tested on HS 578T breast; the reported growth is 134

GET /values?item= O=C(O)c1ccc(S(=O)(=O)O)cc1 &system= HS 578T breast returns growth: 87.6

HS 578T breast assay, compound CCN(CC)c1ccc2nc3ccc(=[N+](CC)CC)cc-3oc2c1 , recorded growth = 58.1

I looked up O=C(NN=C1CCCCC1)C(=O)NN=C1CCCCC1 and its growth for HS 578T breast was 115

# value of growth, HS 578T breast, item O=P(O)(O)OCC(O)CO (stereo not drawn) = 106

Entry Cc1cc(C(O)(c2ccc(Nc3ccccc3)cc2)c2ccc(Nc3ccc(S(=O)(=O)O)cc3)cc2)ccc1N (stereo not drawn) , tested on HS 578T breast, has a reported growth of 1.91

Record CCOC(=O)c1coc(C(=O)OCC)c1C(=O)OCC has HS 578T breast growth equal to 117

Record COc1cc(C(=O)NC(=S)Nc2ccc3ccccc3c2)cc(OC)c1OC / HS 578T breast, growth recorded as 94.5

More entries:
The reported growth value, HS 578T breast, for CCOc1ccccc1/C=N/Nc1nc2ccccc2o1 reads 101

Result for S=C(Nc1ccccc1)N1CCCCC1 , tested on HS 578T breast, growth: 102

Item Cc1ccncc1C(N)=O ; assay system HS 578T breast; growth reported as 116

// growth (HS 578T breast) for C=CCNC(=O)c1ccc(OC)cc1 = 221

Form field growth for item CC1(O)CCCCC1O (stereo not drawn) on HS 578T breast: 102

HS 578T breast data for Cc1cc(OCCO)cc(C)c1Cl ; its growth: 104

Note to self: growth of Cc1ccc(C)n1-c1ccsc1C(=O)NNC(=O)CCl with HS 578T breast was 92.7

----------
system: BT-549 breast; assay: NCI-60 one-dose screen, 48 h (100 = growth as untreated, 0 = no growth, -100 = all killed); conditions: 10 µM
This is part of a sample that, as a whole, favours compounds with a hit. Of some 83,000 tested, about 20% had one in any assay. Active and inactive are the calls of the source. The calls were made as follows: active = growth percent below 10; inactive = the rest.
READOUT_LABEL: growth

The recorded growth for entry COc1ccc(C2(O)CCCCC2)cc1 equals 112% (inactive)

Form field growth, entry COC(=O)c1ccccc1Br : 109% (inactive)

Data point: CC(C)(O)C#CC#CC(C)(C)O ; growth = 93.7% (inactive)

get_value(item= CCCCNC1(C#N)CCN(Cc2ccccc2)CC1 , readout=growth) returns 107% (inactive)

Form: molecule = O=C(O)c1cc([N+](=O)[O-])ccc1Cl ; growth = 97.1% (inactive)

New cases:
Reported growth of Cc1cccc([N+](=O)[O-])c1Cl : 100% (inactive)

So for CC1=NN(c2ccccc2)C(=O)/C1=C\N1CC(=O)NC1=S , the logged growth turned out to be 107% (inactive)

Kindly note the recorded growth for COc1cccc(COC(=O)Nc2ccccc2)c1OC , which is 107% (inactive)

Please fill in: growth reported for COc1cc(C2NC(=O)C(C#N)=C(Nc3cccc(C)c3)S2)ccc1O (centres undefined) = 101% (inactive)

Notebook: COc1cc(-c2ccc(NC(=O)NC3CC3)c(OC)c2)ccc1NC(=O)NC1CC1 , growth read as 89.5% (inactive)

In plain terms, O=C1c2ccccc2C(=O)c2c1ccc(C(=O)O)c2[N+](=O)[O-] has a documented growth of 95.5% (inactive)

So, CC1=C(/C=C/C(C)=C/C=C/C(C)=C/CO)C(C)(C)CCC1 ? Its growth was 108% (inactive)

Input COC(=O)c1cc(-c2ccc(Cl)c(Cl)c2)[nH]c(=O)c1C#N . Output growth: 104% (inactive)

The reported value for Cc1ccc(O)c(C(=O)c2ccccc2)c1 in terms of growth is 99.1% (inactive)

Lab book: growth of CN(C)c1nc2c([nH]1)c(=O)n(C)c(=O)n2C noted as 103% (inactive)

Measured growth, CC(=O)NC(N)=S : 117% (inactive)

----------
test system: 786-0 renal; test: NCI-60 one-dose screen, 48 h (100 = growth as untreated, 0 = no growth, -100 = all killed); details: 10 µM
Compounds without any hit were thinned out: in the full panel of roughly 83,000, 20% have a hit.
Reported growth values for the following molecules.
Express your answer in %, writing the number without its unit.

Reference set, count: 6
Recorded result, CCOc1ccccc1/C=N/Nc1nc2ccccc2o1 , growth: 116

growth measured on Nc1ccc(N=Nc2ccc(O)cc2)c(N)n1 = 65.3

Consider O=C1N(C[P+](c2ccccc2)(c2ccccc2)c2ccccc2)CCCN1C[P+](c1ccccc1)(c1ccccc1)c1ccccc1 . Its measured growth is 103

Value of growth reported for the molecule CCOC(=O)C1=C(C)NC(=O)NC1c1cccs1 (configuration not stated) is 106

For reference, reported growth for COc1cc2c(cc1O)CC[C@@H]1C2CC[C@@]2(C)C1CC[C@@H]2O (some centres not stated) stands at 36

Note to self: growth recorded for CCCCN(CCCC)CCCO was 109

Next:
GET /value?item= N=c1c(C(=O)OCc2ccccc2)ncc(CCl)n1O &field=growth returns 81.6

The value of growth measured for the molecule CC(=O)OC1CC2C(C)(C)OC3CC(=O)OCC32C2CCC3(C)C(=CCC3c3ccoc3)C12C (configuration not stated) turned out to be 103

The reported value for O=C(CC(=O)c1ccccc1O)c1ccccc1 in terms of growth is 89.5

For O=C1Cc2cc(O)ccc2O1 the molecule record lists growth as 103

Entry c1ncc2[nH]cnc2n1 ; growth = 95.2

The recorded growth for entry COc1ccccc1N=Nc1c(O)ccc2cc(S(=O)(=O)O)ccc12 equals 107
